Target: SULT2A1 (Homo sapiens, UniProt Q06520)
Sequence (Q06520 1-285): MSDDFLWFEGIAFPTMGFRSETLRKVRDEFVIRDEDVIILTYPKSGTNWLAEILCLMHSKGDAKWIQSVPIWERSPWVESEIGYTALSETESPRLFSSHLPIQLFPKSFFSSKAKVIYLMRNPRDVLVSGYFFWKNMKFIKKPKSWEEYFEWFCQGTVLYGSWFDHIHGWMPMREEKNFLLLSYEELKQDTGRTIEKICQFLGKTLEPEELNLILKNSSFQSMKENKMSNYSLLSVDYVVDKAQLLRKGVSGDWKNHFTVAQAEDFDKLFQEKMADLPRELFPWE
endpoint.label: IC50

Q. Quick one: IC50 of C[C@]12CC[C@H](O)CC1=CC[C@@H]1[C@@H]2CC[C@]2(C)C(=O)CC[C@@H]12 [DHEA, dehydroepiandrosterone] ?
A. 1640 nM
